Details: in ethanol, 318.15 K
assayReadout: solubility (mole fraction)
One number for each entry.

So what's the measured solubility (mole fraction) for this one? Oc1ccc(C2(c3ccc(O)cc3)CCCCC2)cc1
0.017

====

Details: in 1,4-dioxane, 293.15 K
assayReadout: solubility (mole fraction)
Numbers only.

Item Oc1ccc(C2(c3ccc(O)cc3)CCCCC2)cc1 has what recorded solubility (mole fraction)?
0.0621

====

Conditions: in 1,4-dioxane, 313.15 K
assayReadout: solubility (mole fraction)
Numbers only.

Please look up its solubility (mole fraction): Oc1ccc(C2(c3ccc(O)cc3)CCCCC2)cc1
0.103

====

Conditions: in n-propanol, 313.15 K
assayReadout: solubility (mole fraction)
Numbers only.

Any idea what its solubility (mole fraction) is? The compound is Oc1ccc(C2(c3ccc(O)cc3)CCCCC2)cc1
0.0789

Cited source for all entries: BigSolDB 2.1
